These measurements were taken from ChEMBL document CHEMBL1131146.

# target-under-test: UniProt:Q9QYN8
# Sequence (Q9QYN8 whole entry): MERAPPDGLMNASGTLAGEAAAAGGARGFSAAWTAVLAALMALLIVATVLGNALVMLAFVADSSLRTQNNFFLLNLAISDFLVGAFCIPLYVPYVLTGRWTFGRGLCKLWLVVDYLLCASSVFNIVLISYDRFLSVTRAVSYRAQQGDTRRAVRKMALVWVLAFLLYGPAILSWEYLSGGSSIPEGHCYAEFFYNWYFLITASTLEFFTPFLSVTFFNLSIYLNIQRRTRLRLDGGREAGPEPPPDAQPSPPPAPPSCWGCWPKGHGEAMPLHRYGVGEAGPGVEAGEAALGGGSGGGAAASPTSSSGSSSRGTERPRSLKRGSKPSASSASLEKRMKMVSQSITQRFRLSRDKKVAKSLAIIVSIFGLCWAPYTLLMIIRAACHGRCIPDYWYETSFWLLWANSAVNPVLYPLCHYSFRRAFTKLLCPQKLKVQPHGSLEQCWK
# experiment: In vitro antagonist potency at Histamine H3 receptor measured as K+-evoked [3H]histamine release from synaptosomes of rat cerebral cortex.
# Assay type: functional, subcellular
# conditions: Brain
parameter-measured: -Log K

| chemical-smiles | parameter-measured | result |
| --- | --- | --- |
| CC(C)(C)C#Cc1ccc(OCCCc2c[nH]cn2)cc1 | -Log K | 6.9 |
| CCCC#Cc1ccc(OCCCc2c[nH]cn2)cc1 | -Log K | 6.9 |
| C#Cc1ccc(OCCCc2c[nH]cn2)cc1 | -Log K | 8.6 |
| CC#Cc1ccc(OCCCc2c[nH]cn2)cc1 | -Log K | 8.1 |
| C[Si](C)(C)C#Cc1ccc(OCCCc2c[nH]cn2)cc1 | -Log K | 7.4 |
